B1: PDLIM4 (parent)
chain: FLDERLYCESHAKARVKPPEGYDV

variants of: B1; assay: protein stability index of a GFP-peptide fusion (GPS, HEK-293T) (PSI 1-6); higher = more stable; conditions: c terminus: a fixed tail appended;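 further: lentivirally expressed fusions sorted by FACS into six bins by GFP to DsRed ratio, PSI derived from sequencing read proportions per bin multiplied by bin number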
Is protein stability index at least 2? Then satisfied. If not, not satisfied.

> print(dat)
    variant.key            cat
 1         K13L  not satisfied
 2         D23K      satisfied
 3          L2P      satisfied
 4         S10P      satisfied
 5          E4V      satisfied
 6          L2S      satisfied
 7         V16D      satisfied
 8         V24N      satisfied
 9         A12R  not satisfied
10         E20A      satisfied
11         Y22W  not satisfied
12         E20G      satisfied
13          D3M  not satisfied
14          F1A      satisfied
15          L2R      satisfied
16         H11D      satisfied
17         K17H  not satisfied
18         K17Q  not satisfied
19          E9N      satisfied
20         K13H      satisfied
21         P19T      satisfied
22          E4L      satisfied
23         G21M      satisfied
24          C8R  not satisfied
25         G21T      satisfied
26         P18H  not satisfied
27         R15P  not satisfied
28         V16M  not satisfied
29         E20P      satisfied
30         V24C  not satisfied
31         P18S      satisfied
32         H11V  not satisfied
33         P19D      satisfied
34         V24E  not satisfied
35         P18A      satisfied
36         R15Q      satisfied
37         G21N      satisfied
38         Y22T      satisfied
39         D23I  not satisfied
40          D3H      satisfied
41          Y7P      satisfied
42         P19N  not satisfied
43         A12C  not satisfied
44         P18T  not satisfied
45         G21Q      satisfied
46         D23G  not satisfied
47         Y22K      satisfied
48          C8L      satisfied
49          R5S      satisfied
50         P19M  not satisfied
51          F1H      satisfied
52          E9W  not satisfied
53         G21Y      satisfied
54         V24P      satisfied
55         V24D  not satisfied
56          E9Y      satisfied
57          D3R      satisfied
58         H11A  not satisfied
59         R15G  not satisfied
60          C8V      satisfied
61         R15N  not satisfied
62          R5I      satisfied
63          Y7D      satisfied
64         A14N  not satisfied
65          L6H  not satisfied
66          L2V      satisfied
67         K13G  not satisfied
68          L6K      satisfied
69          R5W      satisfied
70          Y7L      satisfied
71          L2T      satisfied
72         Y22Q      satisfied
73         H11L  not satisfied
74          F1P      satisfied
